B1: HESX1 (parent)
chain: HVPNPPSGISFPSVVDHPMPEERA

- Variants of: B1
- METHOD NOTES: protein stability index of a GFP-peptide fusion (GPS, HEK-293T) (PSI 1-6); higher = more stable;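 also: lentivirally expressed fusions sorted by FACS into six bins by GFP to DsRed ratio, PSI derived from sequencing read proportions per bin multiplied by bin number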
- CONDITION NOTES: c terminus: a fixed tail appended
EXPERIMENTAL READOUT: protein stability index
One number for each entry.

Below, 10 variants whose answers are already recorded.
R23A	2.53
N4M	3.04
F11Y	4.22
P3N	4
S13N	3.04
F11G	4.65
P6T	2.13
G8D	4.1
H17Y	2.52
S10R	2.03

Can you give me protein stability index for all of these, one by one?
1. P5I
2. R23C
3. S7P
4. V14F
5. P3T
6. E21R
7. P12T

3.02
2.56
2.7
3.57
3.9
2.52
3.78

These entries and their values trace back to the supplement of paper PMC10567573.
